target: LIR1-Ig (Homo sapiens, UniProt Q8NHL6); construct: made in house; experiment: Effect of peptides on LIR1-Ig binding to target cells (flow cytometry); settings: Example 1; FIGS. 3 and 5, HeLa cells
Sequence (Q8NHL6 24-461 limits assumed): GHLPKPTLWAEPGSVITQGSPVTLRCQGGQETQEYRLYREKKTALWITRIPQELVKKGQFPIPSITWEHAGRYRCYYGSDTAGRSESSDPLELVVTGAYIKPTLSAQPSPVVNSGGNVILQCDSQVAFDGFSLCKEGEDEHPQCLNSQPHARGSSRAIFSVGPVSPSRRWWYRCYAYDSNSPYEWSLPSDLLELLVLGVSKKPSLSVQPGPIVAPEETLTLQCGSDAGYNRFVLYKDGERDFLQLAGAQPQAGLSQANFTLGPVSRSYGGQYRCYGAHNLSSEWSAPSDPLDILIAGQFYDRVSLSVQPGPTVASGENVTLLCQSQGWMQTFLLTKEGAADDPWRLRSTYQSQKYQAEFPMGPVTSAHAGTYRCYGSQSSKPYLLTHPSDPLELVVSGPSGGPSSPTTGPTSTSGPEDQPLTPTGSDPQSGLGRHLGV
endpoint: Binding of LIR1-Ig in the presence of peptide

LDTAT SMFLL LKEGR SSHVQ (LDTATSMFLLLKEGRSSHVQ) [SEQ ID NO: 6]; not affected
PLGPV TTAHR GTYRC FGSYN (PLGPVTTAHRGTYRCFGSYN) [SEQ ID NO: 12]; not affected
SMFLL LKEGR SSHVQ RGYGK (SMFLLLKEGRSSHVQRGYGK) [SEQ ID NO: 7]; not affected
TFYCR LDTAT SMFLL LKEGR (TFYCRLDTATSMFLLLKEGR) [SEQ ID NO: 5]; not affected
TTAHR GTYRC FGSYN NHAWS (TTAHRGTYRCFGSYNNHAWS) [SEQ ID NO: 13]; not affected

In: Look up and report measured Binding of LIR1-Ig in the presence of peptide for this entry: SGEKV TFYCR LDTAT SMFLL (SGEKVTFYCRLDTATSMFLL) [SEQ ID NO: 4]
Out: not affected
